Target: cynomolgus monkey αvβ5 expressed on BaF3 cells (cynomolgus monkey, UniProt A0A2K5WCD3 31-1048; A0A2K5UEB4 24-799)
Experiment: cell-based or functional assay
QUANTITY MEASURED: BaF3-cyno αvβ5 Cell adhesion to vitronectin (IC50, nM)
Give bare numbers, in nM.

Reference set (3 entries):
BINDER	UOM	TEST VALUE
VH4/VL0 Agly-IgG4.P (S228P)/IgG1 (N297Q) (antibody, V domains shown, also called VH4/VL0 (Agly-IgG4P/G1); H4/L0) VH: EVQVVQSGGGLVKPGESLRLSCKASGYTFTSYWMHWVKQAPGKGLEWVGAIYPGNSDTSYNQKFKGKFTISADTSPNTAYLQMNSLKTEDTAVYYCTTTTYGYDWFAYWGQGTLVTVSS VL: DIQMTQSPSSVSASVGDRVTITCKSSQSVLYSSNQKNYLAWYQQKPGKAPKLLIYWASTRESGVPSRFSGSGSGTDFTLTISSLQPEDFATYYCHQYLSSLTFGQGTKVEIKR	nM	0.43
VH2/VL2 Agly-IgG4.P (S228P)/IgG1 (N297Q) (antibody, V domains shown, also called VH2/VL2 (Agly-IgG4P/G1); H2/L2) VH: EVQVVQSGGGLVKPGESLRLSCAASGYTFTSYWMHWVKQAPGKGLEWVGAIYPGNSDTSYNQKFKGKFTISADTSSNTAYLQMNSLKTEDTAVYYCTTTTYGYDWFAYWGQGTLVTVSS VL: NIQMTQSPSSLSASVGDRVTMSCKSSQSVLYSSNQKNYLAWYQQKPGKSPKLLIYWASTRESGVPDRFTGSGSGTDFTLTISSLQPEDFATYYCHQYLSSLTFGQGTKLEIKR	nM	0.61
Mouse chimeric ALULA (murine ALULA variable domains fused to human IgG1 heavy chain and human kappa light chain domains) (antibody, V domains shown, also called chimeric form of ALULA; chimeric murine antibody) VH: EVQVQQSGTVLARPGASVKMSCKASGYTFTSYWMHWVKQRPGQGLEWIGAIYPGNSDTSYNQKFKGKAKLTAVTSPNTAYMELSSLTNEDSAVYYCTTTTYGYDWFAYWGQGTLVTVSA VL: NIMMTQSPSSLTVSAGEKVTMSCKSSQSVLYSSNQKNYLAWYQQKPGQSPKLLIYWASTRESGVPDRFTGSGSGTDFTLTISSVQAEDLAVYYCHQYLSSLTFGAGTKLELK	nM	0.61

We now examine a further binder.
Given item ALULA-H4/L2-IgG4.P(S228P)/IgG1(N297Q) (antibody, V domains shown, Hybrid aglycosylated IgG4.P (S228P)/IgG1 (N297Q) heavy chain, human kappa light chain; also called VH4/VL2 (Agly-IgG4P/G1); H4/L2 antibody) VH: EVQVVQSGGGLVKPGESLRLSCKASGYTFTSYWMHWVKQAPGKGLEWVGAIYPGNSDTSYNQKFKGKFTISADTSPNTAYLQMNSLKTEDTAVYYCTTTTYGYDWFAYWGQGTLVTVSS VL: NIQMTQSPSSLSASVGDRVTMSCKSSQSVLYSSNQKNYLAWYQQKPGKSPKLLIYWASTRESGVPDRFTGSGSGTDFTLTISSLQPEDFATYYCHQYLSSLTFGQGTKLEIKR , the value recorded as its BaF3-cyno αvβ5 Cell adhesion to vitronectin (IC50, nM) is 0.32
